Hey, just so you know, these numbers are from PubChem BioAssay (NCI).

I'd be grateful if you could share measured growth for these entries.
System: MCF7 breast
Assay: NCI-60 one-dose screen, 48 h (100 = growth as untreated, 0 = no growth, -100 = all killed)
Conditions: 10 µM unless noted
Protocol: Growth inhibition of the MCF7 human tumor cell line is measured as a screen for anti-cancer activity. Cells are grown in 96 well plates and exposed to the test compound for 48 hours. Compounds are tested at a single concentration, which is 10^-5 M for most compounds. The reported endpoint is percent growth (GI% or GIPRCNT), where numbers from 0 - 100% represent growth inhibition, and numbers from -100% - 0 represent cell death. For example, a value of 40 represents 60% growth inhibition. […]
This is part of a sample that, as a whole, favours compounds with a hit. Of some 83,000 tested, about 20% had one in any assay.
Enter your answer as a number in %; do not include the unit.

Item: Nc1cc(Cl)c(S(N)(=O)=O)cc1S(N)(=O)=O Test system: MCF7 breast Read-out: growth Value: ?
96.2

Item: Oc1ccccc1C=Nc1ccccc1N=Cc1ccccc1O.[Cu+2] Test system: MCF7 breast Read-out: growth Value: ?
27.6

Item: CCOc1nc(-c2ccccc2)cc2c(O)c(-c3nnco3)[nH]c(=O)c12 Test system: MCF7 breast Read-out: growth Value: ?
23.3

Item: c1ccc2cc(C[n+]3ccn(CCCCCCCn4cc[n+](Cc5ccc6ccccc6c5)c4)c3)ccc2c1 Test system: MCF7 breast Read-out: growth Value: ?
35.1

Item: Cn1cc(-c2csc(-c3cn(C)c4ncccc34)n2)c2cccnc21 Test system: MCF7 breast Read-out: growth Value: ?
91.6

Item: Cc1ccc2c(c1)O/C(=C\c1ccc([N+](=O)[O-])o1)C2=O Test system: MCF7 breast Read-out: growth Value: ?
9.48

Item: CNc1ccc(CSc2ccc(Cl)cc2)cc1 Test system: MCF7 breast Read-out: growth Value: ?
96.2

Item: O=Nc1ccc(O)c(=O)cc1 Test system: MCF7 breast Read-out: growth Value: ?
20.9

Item: O=C1NCN(CCO)CN1 Test system: MCF7 breast Read-out: growth Value: ?
94.1

Item: COc1ccc2c3c(c(OCCCN(C)C)nc2c1)-c1ccc(Cl)cc1C3=O Test system: MCF7 breast Read-out: growth Value: ?
-82.3

Item: CC[N+](C)(CC)CCCC(C)Nc1ccnc2cc(Cl)ccc12 (centres undefined) Test system: MCF7 breast Read-out: growth Value: ?
96.4

Item: CC1=CSC2=NCCN12 Test system: MCF7 breast Read-out: growth Value: ?
96.6

Item: O=C(/C=C/c1ccc(O)c(O)c1)N1CCN(c2ccc(Cl)cc2)CC1 Test system: MCF7 breast Read-out: growth Value: ?
74.9

Item: O=C1C2C3C=CC(O3)C2C(=O)N1Nc1ccccc1 (centres undefined) Test system: MCF7 breast Read-out: growth Value: ?
98.9

Item: O=C(Cn1ccnc1)NC(c1ccccc1)c1ccccc1 Test system: MCF7 breast Read-out: growth Value: ?
100

Item: Cn1cc(-c2csc(-c3cn(C)c4ncccc34)n2)c2cc(Br)cnc21 Test system: MCF7 breast Read-out: growth Value: ?
70.2

Item: CCCCCCCCCCCCCCCCCC1=NC(C)(C)CN1CCO Test system: MCF7 breast Read-out: growth Value: ?
-59.5

Item: CN(CC(=O)Nc1nc2ccccc2[nH]1)S(=O)(=O)c1ccc(Cl)cc1 Test system: MCF7 breast Read-out: growth Value: ?
40.9

Item: O=C(C(=O)N1CCCCC1)c1ccc(OC2OC(CO)C(O)C(O)C2O)cc1 (centres undefined) Test system: MCF7 breast Read-out: growth Value: ?
94.3

Item: O=C(C(=O)N1CCOCC1)c1ccc(OC2OC(CO)C(O)C(O)C2O)cc1 (centres undefined) Test system: MCF7 breast Read-out: growth Value: ?
95.2

Item: COc1ccc2c(c1)/C(=C\c1c[nH]c3ccc(F)cc13)C(=O)N2 Test system: MCF7 breast Read-out: growth Value: ?
60.3

Item: COc1ccc2nc(-c3ccc(-n4cncc4-c4ccc(OC)c(N)c4)cc3)sc2c1 Test system: MCF7 breast Read-out: growth Value: ?
82.1

Item: COc1ccc(-c2cc(Cc3cccs3)c(=O)n(Cn3cncn3)n2)cc1 Test system: MCF7 breast Read-out: growth Value: ?
93.2

Item: Clc1ccc2c(Nc3ccc4oc(NCCN5CCCC5)nc4c3)ccnc2c1 Test system: MCF7 breast Read-out: growth Value: ?
68.9

----------
tested on: OVCAR-4 ovarian; assay: NCI-60 one-dose screen, 48 h; conditions: 10 µM unless noted
This is part of a sample that, as a whole, favours compounds with a hit. Of some 83,000 tested, about 20% had one in any assay. Active and inactive are the calls of the source. Rule for the calls: active = growth percent below 10; inactive = the rest.
The categories you may choose from are active, inactive

How was Cc1cc2c(cc1C)Nc1sc(NC(=O)CN3CCN(C)CC3)nc1C(=O)N2 classified in this test?
inactive

How was CC(C)[C@]12O[C@H]1[C@@H]1O[C@]13[C@]1(O[C@H]1C[C@H]1C4=C(CC[C@@]13C)C(=O)OC4)[C@@H]2OC(=O)CN(C)C classified in this test?
inactive

How was COc1ccc(/C=N/NC(=O)c2ccc(S(C)(=O)=O)cc2)cc1OC classified in this test?
inactive

How was O=C(Nc1ccc(Oc2ccc(NC(=O)Nc3ccc([N+](=O)[O-])cc3)cc2)cc1)Nc1ccc([N+](=O)[O-])cc1 classified in this test?
inactive

How was c1cncc(CNc2ccccc2-c2nnc(Nc3ccc4c(c3)OCO4)o2)c1 classified in this test?
inactive

How was CCN(CC)CCNc1ccc(Cl)cc1Cl classified in this test?
inactive

How was COc1cc2cn3c4ccc(O)cc4nc(N)c3c2cc1OC classified in this test?
inactive

How was CCN(CC)CCCCNc1c2ccccc2[n+](C)c2c1[nH]c1ccccc12 classified in this test?
active

How was CCCC[N+](CCCC)=c1ccc2nc3c(C)cc(N(CC)CC)cc3sc-2c1 classified in this test?
inactive

How was COc1ncc(-c2ccc3nccc(C#CCN4CCN(S(C)(=O)=O)CC4)c3c2)cc1NS(=O)(=O)c1ccc(F)cc1F classified in this test?
active

----------
Tested on: HCT-116 colon
Experiment: NCI-60 one-dose screen, 48 h (100 = growth as untreated, 0 = no growth, -100 = all killed)
Conditions: 10 µM unless noted
Protocol: Growth inhibition of the HCT-116 human tumor cell line is measured as a screen for anti-cancer activity. Cells are grown in 96 well plates and exposed to the test compound for 48 hours. Compounds are tested at a single concentration, which is 10^-5 M for most compounds. The reported endpoint is percent growth (GI% or GIPRCNT), where numbers from 0 - 100% represent growth inhibition, and numbers from -100% - 0 represent cell death. For example, a value of 40 represents 60% growth inhibition. […]
This is part of a sample that, as a whole, favours compounds with a hit. Of some 83,000 tested, about 20% had one in any assay.
One threshold, 20%, splits the recorded growth values: lower ones are true (1), equal or higher ones are false (0).

Does this compound meet the criterion growth < 20%? COc1cc(OC)c2cc(C(=O)O)c(=O)oc2c1
false (0)

Does this compound meet the criterion growth < 20%? CCN(CC)CCCNCCCNc1cc(OC)cc2cccnc12
false (0)

Does this compound meet the criterion growth < 20%? O=C(Nc1ccc(Cl)cc1Cl)Nc1ccc(-c2cccnc2)cc1N1CCC(CO)CC1
true (1)

Does this compound meet the criterion growth < 20%? CCCCCCCC/C=C\CCCCCCCCOc1ccccc1CC(=O)NCC[N+]1(C)CCCC1
false (0)

Does this compound meet the criterion growth < 20%? ClC1=C(Cl)C(Cl)=C(Cl)C1=Cc1ccc(Cl)cc1
true (1)

Does this compound meet the criterion growth < 20%? Cc1ccccc1NC(=O)c1cc2ccccc2cc1O
false (0)

----------
Tested on: NCI-H460 lung
Assay: NCI-60 one-dose screen, 48 h (100 = growth as untreated, 0 = no growth, -100 = all killed)
Settings: 10 µM unless noted
Procedure: Growth inhibition of the NCI-H460 human Non-Small Cell Lung tumor cell line is measured as a screen for anti-cancer activity. Cells are grown in 96 well plates and exposed to the test compound for 48 hours. Compounds are tested at a single concentration, which is 10^-5 M for most compounds. The reported endpoint is percent growth (GI% or GIPRCNT), where numbers from 0 - 100% represent growth inhibition, and numbers from -100% - 0 represent cell death. […]
About 83,000 compounds went through this panel and 20% of them were active in at least one assay; those are over-represented in the sample as a whole.
RECORDED METRIC: growth (%)
Enter your answer as a number in %; do not include the unit.

Which growth value belongs to O=C(Oc1ccc[nH]c1=O)c1cccc(Cl)c1 ?
100

Which growth value belongs to Clc1ccc2nc(Cl)c3ccccc3c2c1 ?
-1.38

Which growth value belongs to O=Cc1c[nH]c2ccc(NC(=O)OCc3ccccc3)cc12 ?
68.4

Which growth value belongs to O=C(NCCCO)c1cc(Cl)ccc1O ?
9.74

Which growth value belongs to COc1cc(/C=C/C(=O)Nc2ccc3c(c2)/C(=C\c2cccn2C)C(=O)N3)cc(OC)c1OC ?
55.4

Which growth value belongs to COC(=O)CCC1=C(C)C(C)=N/C1=C\c1[nH]c(-c2ccc[nH]2)cc1OC ?
0.969

Which growth value belongs to Cc1nc2c(O)cccc2cc1CO ?
103

Which growth value belongs to COc1cc(/C=C2\COc3ccc(O)c(O)c3C2=O)cc(OC)c1 ?
10.5

Which growth value belongs to CN(C)c1cccc2c(S(=O)(=O)N[C@H]3CC[C@H]4[C@@H]5CCc6cc(O)ccc6[C@H]5CC[C@]34C)cccc12 ?
7.05

Which growth value belongs to COc1ccc2nc3cc(Cl)ccc3c(Nc3cc(C(C)C)c(O)cc3C)c2c1 ?
35.3

Which growth value belongs to Cc1cc2c(cc1C)Nc1sc(NC(=O)CN3CCN(C)CC3)nc1C(=O)N2 ?
101

Which growth value belongs to CCOC(=O)/C(=C/c1ccccc1)C(=O)c1ccccc1 ?
88.3

Which growth value belongs to CN(C)c1nc(N)nc(Cn2c(-c3nonc3N)nc3ccccc32)n1 ?
95.6

Which growth value belongs to Cc1ccsc1/C=C/C1=NCCCN1C ?
116

Which growth value belongs to CC/C(=C\c1ccc(N(C)C)cc1)c1ccncc1 ?
14.3

Which growth value belongs to Fc1ccc(-c2nnc(/C=C/c3cn(-c4ccccc4)nc3-c3ccccc3)o2)cc1 ?
78.6

Which growth value belongs to C=C(C)[C@H]1CC/C(C)=C/CC[C@]2(C)O[C@H]2CC/C(C=O)=C\C1O (stereo partly drawn) ?
104

Which growth value belongs to Nc1cc(Cl)c(S(N)(=O)=O)cc1S(N)(=O)=O ?
106

Which growth value belongs to CCOC(=O)C(Cc1ccccc1)(C(=O)OCC)C(Br)C(=O)c1ccccc1 (stereo not drawn) ?
93

Which growth value belongs to Cn1cc(-c2csc(-c3cn(C)c4ncccc34)n2)c2cc(Br)cnc21 ?
95.4

Which growth value belongs to O=c1ccn(C2OC(CO)C(O)C2F)c(=O)[nH]1 (stereo not drawn) ?
113

Which growth value belongs to c1ccc(-c2nn[nH]n2)c(-c2ccc(CN3CCN(c4nsc5ccccc45)CC3)cc2)c1 ?
98.4

Which growth value belongs to CCN1CCN(c2cc(-c3cn[nH]c3-c3cc(C)cc(OC)c3)nc(-c3cccnc3)n2)CC1 ?
88.9

Which growth value belongs to NC(N)=N/N=C(/c1ccccc1)c1ccc(Cl)cc1 ?
52.3

Which growth value belongs to O=C1Nc2ccc(F)cc2/C1=C/c1nc(-c2ccc(F)cc2)n2ccccc12 ?
99.2

Which growth value belongs to COc1cc(C2=NN(C(C)=O)C(c3ccc(OC(C)=O)cc3OC(C)=O)O2)c(OC(C)=O)c2ccccc12 (stereo not drawn) ?
9.82

Which growth value belongs to C[n+]1c2ccccc2c(NC2CCNCC2)c2[nH]c3ccccc3c21 ?
-0.0252

Which growth value belongs to O=C(N1CCC(CN=c2cc3n(-c4ccc(Cl)cc4)c4ccccc4nc-3cc2Nc2ccc(Cl)cc2)CC1)N1CC1 ?
-71.5

Which growth value belongs to CCN(CC)c1ccc(N=Nc2cc(Cl)ccc2Cl)c(NC(=O)CCC(=O)O)c1 ?
108

Which growth value belongs to N#Cc1cccc(/C=C(/C(=O)c2ccccc2)c2ccccc2)c1 ?
77.5

Which growth value belongs to Oc1[nH]c2ccc(Cl)cc2c1/C=c1/ccc2c(c1)N=C(c1ccc(C(F)(F)F)cc1)N=2 ?
39.2

Which growth value belongs to O=C1OC(c2ccc(-c3ccccc3)cc2)=C/C1=C/c1cccs1 ?
105

Which growth value belongs to COc1ccc(-c2noc(N)c2-c2cc(OC)c3c(c2)OCO3)cc1 ?
16

Which growth value belongs to COc1ccc(-c2csc(NC(=O)c3cc(O)c(O)c(O)c3)n2)cc1 ?
53.7

Which growth value belongs to S=C(c1ccccc1)N1CCN(c2cccc(Cl)c2)CC1 ?
111

Which growth value belongs to COc1ccc(-c2nn(-c3ccccc3)cc2/C=C2\SC(=S)N(CCc3ccc(O)cc3)C2=O)cc1 ?
81.7

Which growth value belongs to CCn1c2c(c3ccccc31)SC1c3cccn3CCN1C2=S (stereo not drawn) ?
98.9

Which growth value belongs to O=Nc1ccc(O)c(=O)cc1 ?
114

Which growth value belongs to Cn1cnc([N+](=O)[O-])c1S(=O)(=O)Oc1ccc(Cl)cc1 ?
103

Which growth value belongs to Cc1cc(O)c2c(c1)C[C@H]1[C@@H]3CC[C@H]4CC(=O)CC[C@]4(C)[C@H]3CC(=O)[C@]21C ?
99.2

Which growth value belongs to O=C(Nc1ccc(Cl)cc1Cl)Nc1ccc(-c2cccnc2)cc1N1CCC(CO)CC1 ?
35.1

Which growth value belongs to O=C1/C(=N/O)CCc2ccccc21 ?
92.6

Which growth value belongs to COC(=O)CCC1=C(CC(=O)OC)C(C)=N/C1=C\c1[nH]c(-c2ccc[nH]2)cc1OC ?
19.1
